# assay_target: Jurkat-hTIGIT-NFAT-CD226细胞上过表达的人TIGIT (human)
# Sequence (Q495A1 whole entry): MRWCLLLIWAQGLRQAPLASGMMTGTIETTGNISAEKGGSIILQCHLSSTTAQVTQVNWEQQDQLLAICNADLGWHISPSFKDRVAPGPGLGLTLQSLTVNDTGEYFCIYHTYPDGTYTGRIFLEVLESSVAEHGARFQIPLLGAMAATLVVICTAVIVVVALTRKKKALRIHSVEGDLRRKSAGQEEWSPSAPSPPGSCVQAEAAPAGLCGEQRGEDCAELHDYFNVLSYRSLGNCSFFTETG
# assay_name: cell-based or functional assay
Entries annotated with measured EC50(μg/ml)of RLU
Form entry: value (µg/mL) — number only.

binder	EC50(μg/ml)of RLU / µg/mL
人源化抗TIGIT抗体A3 (antibody, human IgG1, kappa, V domains shown, Humanized) VH: QLQLVQSGAEVKKPGASVKVSCKASGYSFTDYNMNWVRQAPGQSLEWIGVINPNHGTISYNQKFKGRVTMTRDQSTSTAYMELNSLRSEDTAVYYCANNWDVWYFDVWGQGTLVTVSS VL: DIQMTQSPSSLSASVGDRVTITCRPSENIYSYLAWYQQKPGNAPKLLVYNAKALAEGVPSRFSGSGSGTQFTLTISSLQPEDFATYYCQHHFGAPWTFGQGTKVEIKR	0.782
人源化抗TIGIT抗体A2 (antibody, human IgG1, kappa, V domains shown, Humanized) VH: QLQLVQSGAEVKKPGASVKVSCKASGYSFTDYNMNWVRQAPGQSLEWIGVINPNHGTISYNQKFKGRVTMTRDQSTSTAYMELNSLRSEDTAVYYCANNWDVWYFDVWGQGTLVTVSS VL: DIQMTQSPSSLSASVGDRVTITCRPSENIYSYLAWYQQKPGKAPKLLVYNAKALAEGVPSRFSGSGSGTDFTLTISSLQPEDFATYYCQHHFGAPWTFGQGTKVEIKR	1.01
人源化抗TIGIT抗体A1 (antibody, human IgG1, kappa, V domains shown, Humanized) VH: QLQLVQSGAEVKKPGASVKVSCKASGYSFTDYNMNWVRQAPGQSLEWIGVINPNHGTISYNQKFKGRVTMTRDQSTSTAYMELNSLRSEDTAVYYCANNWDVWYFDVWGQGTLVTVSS VL: DIQMTQSPSSLSASVGDRVTITCRPSENIYSYLAWYQQKPGKAPKLLIYNAKALAEGVPSRFSGSGSGTDFTLTISSLQPEDFATYYCQHHFGAPWTFGQGTKVEIKR	1.18
阳性对照抗体P1 (antibody, human IgG1, kappa, V domains shown, Positive control anti-TIGIT antibody) VH: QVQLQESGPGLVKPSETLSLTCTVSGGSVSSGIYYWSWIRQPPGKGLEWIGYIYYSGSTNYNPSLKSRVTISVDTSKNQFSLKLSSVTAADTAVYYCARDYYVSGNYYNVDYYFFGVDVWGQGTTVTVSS VL: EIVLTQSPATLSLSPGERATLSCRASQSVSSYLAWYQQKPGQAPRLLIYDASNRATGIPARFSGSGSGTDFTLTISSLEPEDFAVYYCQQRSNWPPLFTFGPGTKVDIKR	0.305
人源化抗TIGIT抗体A4 (antibody, human IgG1, kappa, V domains shown, Humanized) VH: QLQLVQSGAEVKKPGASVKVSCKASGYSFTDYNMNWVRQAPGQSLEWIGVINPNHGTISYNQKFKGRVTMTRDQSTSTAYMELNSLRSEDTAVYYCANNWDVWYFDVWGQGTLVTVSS VL: DIQMTQSPSSLSASVGDRVTITCRPSENIYSYLAWYQQKPGNSPKLLVYNAKALAEGVPSRFSGSGSGTQFTLTISSLQPEDFATYYCQHHFGAPWTFGGGTKVEIKR	0.847

Kindly review the next binder as well.
Q: I have this binder here, 嵌合抗TIGIT抗体A0 (antibody, human IgG1, kappa, V domains shown, also called B011-A-142E4C5) VH: ELQLQQSGPELVKPGASVKISCKASGYSFTDYNMNWVKQSNGKSLEWIGVINPNHGTISYNQKFKGKATLTVDQSSSTAYMQLNSLTSEDSAVYYCANNWDVWYFDVWGTGTTVTVSS VL: DIQMTQSPASLSASVGETVTITCRPSENIYSYLAWYRQKQGNSPQLLVYNAKALAEGVPSRFSGSGSGTQFSLKINSLQPEDFGSYYCQHHFGAPWTFGGGTKLEIKR , and I need its recorded EC50(μg/ml)of RLU.
Result: 1.32
